Molecular target: Estrogen receptor (Homo sapiens)
Test: Agonist activity at human ERalpha expressed in HepG2 cells up to 10^-5 M after 24 hrs by luciferase reporter gene assay relative to E2
Type: functional, cell-based
READOUT NAME: Activity (%)

O=S(=O)(Oc1ccc(O)cc1)[C@H]1C[C@H]2C(c3ccccc3)=C(c3ccccc3)[C@@H]1[S+]2[O-] (relative stereo); 22
CCOC(=O)[C@@H]1[C@H](C(=O)OCC)[C@@H]2C(c3ccc(O)c(C)c3)=C(c3ccc(O)c(C)c3)[C@H]1[S+]2[O-] (stereo partly specified); 22
O=C1[C@@H]2[C@H](C(=O)N1c1ccccc1)[C@@H]1C(c3ccc(O)cc3)=C(c3ccc(O)cc3)[C@H]2[S+]1[O-] (mixture of isomers); 31
COc1ccc(OS(=O)(=O)[C@H]2C[C@H]3C(c4ccc(O)cc4C)=C(c4ccc(O)cc4C)[C@@H]2[S+]3[O-])cc1 (relative stereo); 76
Cc1cc(C2=C(c3ccc(O)c(C)c3)[C@H]3[C@@H](S(=O)(=O)Oc4ccccc4Cl)C[C@@H]2[S+]3[O-])ccc1O (relative stereo); 72
Cc1cc(O)ccc1C1=C(c2ccc(O)cc2C)[C@H]2[C@@H](S(=O)(=O)Oc3ccccc3Br)C[C@@H]1[S+]2[O-] (relative stereo); 67

###

Target: Estrogen receptor beta (Homo sapiens)
Experiment: Agonist activity at human ERbeta expressed in HepG2 cells up to 10^-5 M after 24 hrs by luciferase reporter gene assay relative to E2
Assay type: functional, cell-based
READOUT NAME: Activity

COc1ccc(OS(=O)(=O)[C@H]2C[C@H]3C(c4ccc(O)cc4)=C(c4ccc(O)cc4)[C@@H]2[S+]3[O-])cc1 (relative stereo); 19%
Cc1cc(O)ccc1C1=C(c2ccc(O)cc2C)[C@H]2[C@@H](S(=O)(=O)Oc3ccc(F)cc3)C[C@@H]1[S+]2[O-] (relative stereo); 45%
O=S(=O)(Oc1ccc(O)cc1)[C@H]1C[C@H]2C(c3ccc(O)cc3)=C(c3ccc(O)cc3)[C@@H]1[S+]2[O-] (relative stereo); 10%

###

Target: Estrogen receptor beta (Homo sapiens, UniProt Q92731)
Sequence (Q92731 whole entry): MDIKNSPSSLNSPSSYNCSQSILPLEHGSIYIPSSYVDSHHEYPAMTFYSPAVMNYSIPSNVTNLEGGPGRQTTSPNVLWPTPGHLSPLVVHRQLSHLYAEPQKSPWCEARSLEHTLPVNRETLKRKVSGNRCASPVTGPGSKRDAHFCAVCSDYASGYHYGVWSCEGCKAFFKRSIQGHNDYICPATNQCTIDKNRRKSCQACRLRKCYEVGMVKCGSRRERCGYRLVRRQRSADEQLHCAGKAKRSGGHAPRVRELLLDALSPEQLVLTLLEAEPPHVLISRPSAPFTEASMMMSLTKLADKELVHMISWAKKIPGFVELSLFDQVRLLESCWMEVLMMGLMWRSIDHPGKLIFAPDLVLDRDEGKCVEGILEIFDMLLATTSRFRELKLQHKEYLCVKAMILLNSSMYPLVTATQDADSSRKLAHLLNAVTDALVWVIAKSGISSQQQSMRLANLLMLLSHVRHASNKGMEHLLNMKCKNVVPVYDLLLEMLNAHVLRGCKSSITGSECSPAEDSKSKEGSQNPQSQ
Assay: Displacement of [3H]estradiol from human ERbeta after 18 to 24 hrs
RBA under 0.02% gets Yes, anything at or over 0.02% gets No.

Cc1cc(O)ccc1C1=C(c2ccc(O)cc2C)[C@H]2[C@H]3C(=O)N(c4ccccc4)C(=O)[C@H]3[C@@H]1[S+]2[O-] (mixture of isomers); Yes
Cc1cc(O)ccc1C1=C(c2ccc(O)cc2C)[C@H]2[C@@H](S(=O)(=O)Oc3ccccc3F)C[C@@H]1[S+]2[O-] (relative stereo); No
COc1ccc(OS(=O)(=O)[C@H]2C[C@H]3C(c4ccc(O)c(C)c4)=C(c4ccc(O)c(C)c4)[C@@H]2[S+]3[O-])cc1 (relative stereo); No
Cc1cc(O)ccc1C1=C(c2ccc(O)cc2C)[C@H]2[C@@H](S(=O)(=O)Oc3ccc(O)cc3)C[C@@H]1[S+]2[O-] (relative stereo); No
Cc1cc(C2=C(c3ccc(O)c(C)c3)[C@H]3[C@H]4C(=O)N(c5ccccc5)C(=O)[C@H]4[C@@H]2[S+]3[O-])ccc1O (mixture of isomers); Yes
COc1ccc(OS(=O)(=O)[C@H]2C[C@H]3C(c4ccc(O)cc4)=C(c4ccc(O)cc4)[C@@H]2[S+]3[O-])cc1 (relative stereo); No
O=C1[C@@H]2[C@H](C(=O)N1c1ccccc1)[C@@H]1C(c3ccc(O)cc3)=C(c3ccc(O)cc3)[C@H]2[S+]1[O-] (mixture of isomers); Yes
Cc1ccc(C2=C(c3ccc(C)cc3)[C@H]3[C@@H](S(=O)(=O)Oc4ccc(O)cc4)C[C@@H]2[S+]3[O-])cc1 (relative stereo); Yes
Cc1cc(O)ccc1C1=C(c2ccc(O)cc2C)[C@H]2[C@@H](S(=O)(=O)Oc3ccc(Br)cc3)C[C@@H]1[S+]2[O-] (relative stereo); No
Cc1cc(O)ccc1C1=C(c2ccc(O)cc2C)[C@H]2[C@@H](S(=O)(=O)Oc3ccccc3Cl)C[C@@H]1[S+]2[O-] (relative stereo); No
Cc1cc(C2=C(c3ccc(O)c(C)c3)[C@H]3[C@@H](S(=O)(=O)Oc4cccc5ccccc45)C[C@@H]2[S+]3[O-])ccc1O (relative stereo); Yes
CCOC(=O)[C@@H]1[C@H](C(=O)OCC)[C@@H]2C(c3ccc(O)c(C)c3)=C(c3ccc(O)c(C)c3)[C@H]1[S+]2[O-] (some centres not stated); Yes

###

Target: Estrogen receptor beta (Homo sapiens, UniProt Q92731)
Assay: Agonist activity at human ERbeta expressed in HepG2 cells up to 10^-5 M after 24 hrs by luciferase reporter gene assay relative to E2
Type: functional, cell-based
Activity under 20% gets true (1), anything at or over 20% gets false (0).

Cc1ccc(C2=C(c3ccc(C)cc3)[C@H]3[C@@H](S(=O)(=O)Oc4ccc(O)cc4)C[C@@H]2[S+]3[O-])cc1 (relative stereo); true (1)
Cc1cc(O)ccc1C1=C(c2ccc(O)cc2C)[C@H]2[C@@H](S(=O)(=O)Oc3ccccc3Br)C[C@@H]1[S+]2[O-] (relative stereo); false (0)
Cc1cc(O)ccc1C1=C(c2ccc(O)cc2C)[C@H]2[C@@H](S(=O)(=O)Oc3cccc4ccccc34)C[C@@H]1[S+]2[O-] (relative stereo); false (0)
Cc1cc(C2=C(c3ccc(O)c(C)c3)[C@H]3[C@@H](S(=O)(=O)Oc4ccccc4Cl)C[C@@H]2[S+]3[O-])ccc1O (relative stereo); true (1)
COc1ccc(OS(=O)(=O)[C@H]2C[C@H]3C(c4ccc(O)cc4C)=C(c4ccc(O)cc4C)[C@@H]2[S+]3[O-])cc1 (relative stereo); false (0)
CCOC(=O)[C@@H]1[C@H](C(=O)OCC)[C@@H]2C(c3ccc(O)c(C)c3)=C(c3ccc(O)c(C)c3)[C@H]1[S+]2[O-] (stereo partly specified); true (1)
O=S(=O)(Oc1ccccc1)[C@H]1C[C@H]2C(c3ccc(O)cc3)=C(c3ccc(O)cc3)[C@@H]1[S+]2[O-] (relative stereo); true (1)
Cc1cc(C2=C(c3ccc(O)c(C)c3)[C@H]3[C@@H](S(=O)(=O)Oc4ccccc4)C[C@@H]2[S+]3[O-])ccc1O (relative stereo); true (1)
Cc1cc(O)ccc1C1=C(c2ccc(O)cc2C)[C@H]2[C@H]3C(=O)N(c4ccccc4)C(=O)[C@H]3[C@@H]1[S+]2[O-] (mixture of isomers); false (0)
Cc1cc(O)ccc1C1=C(c2ccc(O)cc2C)[C@H]2[C@@H](S(=O)(=O)Oc3ccc(Cl)cc3)C[C@@H]1[S+]2[O-] (relative stereo); false (0)
Cc1cc(O)ccc1C1=C(c2ccc(O)cc2C)[C@H]2[C@@H](S(=O)(=O)Oc3ccc(O)cc3)C[C@@H]1[S+]2[O-] (relative stereo); false (0)

###

Biological target: Estrogen receptor (Homo sapiens) (UniProt P03372)
Experiment: Agonist activity at human ERalpha expressed in HepG2 cells up to 10^-5 M after 24 hrs by luciferase reporter gene assay relative to E2
Format: functional, cell-based
Activity under 60% gets MET, anything at or over 60% gets NOT MET.

Cc1cc(O)ccc1C1=C(c2ccc(O)cc2C)[C@H]2[C@@H](S(=O)(=O)Oc3ccc(O)cc3)C[C@@H]1[S+]2[O-] (relative stereo); MET
O=S(=O)(Oc1ccc(O)cc1)[C@H]1C[C@H]2C(c3ccc(O)cc3)=C(c3ccc(O)cc3)[C@@H]1[S+]2[O-] (relative stereo); MET
Cc1cc(C2=C(c3ccc(O)c(C)c3)[C@H]3[C@H]4C(=O)N(c5ccccc5)C(=O)[C@H]4[C@@H]2[S+]3[O-])ccc1O (mixture of isomers); MET
Cc1cc(O)ccc1C1=C(c2ccc(O)cc2C)[C@H]2[C@@H](S(=O)(=O)Oc3ccc(Cl)cc3)C[C@@H]1[S+]2[O-] (relative stereo); NOT MET
Cc1cc(C2=C(c3ccc(O)c(C)c3)[C@H]3[C@@H](S(=O)(=O)Oc4cccc5ccccc45)C[C@@H]2[S+]3[O-])ccc1O (relative stereo); MET
Cc1cc(O)ccc1C1=C(c2ccc(O)cc2C)[C@H]2[C@@H](S(=O)(=O)Oc3ccc(Br)cc3)C[C@@H]1[S+]2[O-] (relative stereo); NOT MET

###

// reported pEC50 per item
Target: Estrogen receptor (Homo sapiens)
Sequence (P03372 whole entry): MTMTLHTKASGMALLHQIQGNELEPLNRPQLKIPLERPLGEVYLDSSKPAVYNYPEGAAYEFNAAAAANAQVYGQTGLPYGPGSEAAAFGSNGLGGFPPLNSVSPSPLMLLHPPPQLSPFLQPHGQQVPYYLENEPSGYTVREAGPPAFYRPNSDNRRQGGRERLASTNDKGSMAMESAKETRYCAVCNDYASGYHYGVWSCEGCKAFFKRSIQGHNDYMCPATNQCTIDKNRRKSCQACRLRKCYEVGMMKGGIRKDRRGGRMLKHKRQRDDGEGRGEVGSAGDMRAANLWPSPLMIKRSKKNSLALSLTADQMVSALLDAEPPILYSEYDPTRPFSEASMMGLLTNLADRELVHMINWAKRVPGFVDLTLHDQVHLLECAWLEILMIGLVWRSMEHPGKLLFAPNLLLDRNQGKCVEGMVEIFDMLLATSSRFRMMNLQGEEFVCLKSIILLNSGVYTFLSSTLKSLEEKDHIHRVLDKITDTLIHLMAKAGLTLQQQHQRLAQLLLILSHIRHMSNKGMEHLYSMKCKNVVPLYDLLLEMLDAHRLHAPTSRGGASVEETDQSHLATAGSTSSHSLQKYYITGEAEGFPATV
pEC50: −log10 of the molar value.
READOUT NAME: pEC50

Cc1cc(O)ccc1C1=C(c2ccc(O)cc2C)[C@H]2[C@@H](S(=O)(=O)Oc3ccc(Br)cc3)C[C@@H]1[S+]2[O-] (relative stereo); 6.96
Cc1cc(C2=C(c3ccc(O)c(C)c3)[C@H]3[C@@H](S(=O)(=O)Oc4ccccc4Cl)C[C@@H]2[S+]3[O-])ccc1O (relative stereo); 5.70
Cc1cc(O)ccc1C1=C(c2ccc(O)cc2C)[C@H]2[C@@H](S(=O)(=O)Oc3ccccc3F)C[C@@H]1[S+]2[O-] (relative stereo); 8.66

Origin of measurements: ChEMBL document CHEMBL2029328
